Test system: Armyworms
TEST METHOD NOTES: Test of insecticidal activity against armyworms (leaf immersion)
EXPERIMENTAL CONTEXT: 600 mg/kg, 3-4 days
Entries and their measured Mortalities (%) Armyworms follow.
MEASURED METRIC: Mortalities (%) Armyworms

In [3]: df
Out[3]:
                    structure_smiles_string            measured_metric  recorded_measurement
0   CC1=NNC(=O)N(NS(=O)(=O)c2ccc(C#N)cc2)C1  Mortalities (%) Armyworms                    10
1  CC1=NNC(=O)N(NS(=O)(=O)c2cccc3ccccc23)C1  Mortalities (%) Armyworms                    10
2                CCS(=O)(=O)NN1CC(C)=NNC1=O  Mortalities (%) Armyworms                    10

====

Test system: Watermelon anthracnose
TEST METHOD NOTES: In vitro fungicidal activity, PDA colony diameter
Type: cell-based
EXPERIMENTAL CONTEXT: 50 mg/kg, inhibition of colony diameter; read-out: Fungicidal activity (%) Watermelon anthracnose
Entries and their measured inhibition at 50 mg/kg follow.
MEASURED METRIC: inhibition at 50 mg/kg

                                   compound  recorded_measurement
0  CC1=NNC(=O)N(NS(=O)(=O)Cc2ccccc2)C1 [Ia-7]                 20.8%
1  CC1=NNC(=O)N(NS(=O)(=O)c2cccc(F)c2)C1 [Ia-17]                  8.2%
2  CCCCS(=O)(=O)N(N1CC(C)=NNC1=O)S(=O)(=O)CCCC [Ib-4]                 29.2%
3  CC1=NNC(=O)N(NS(=O)(=O)c2cccs2)C1 [Ia-28]                    0%
4  CC1=NNC(=O)N(NS(=O)(=O)C2CCCCC2)C1 [Ia-6]                 12.5%

====

Entries and their measured mortality at 10 mg/kg follow.
Tested on: mosquito larvae (Culer pipiens pallens)
TEST METHOD NOTES: Test of insecticidal activity against mosquito larvae (checked after 24 h)
EXPERIMENTAL CONTEXT: 24 h, read-out: Mortalities (%) against mosquito larvae
MEASURED METRIC: mortality at 10 mg/kg

                    structure_smiles_string  recorded_measurement
0         CC1=NNC(=O)N(NS(=O)(=O)c2ccsc2)C1                   35%
1           CC1=NNC(=O)N(NS(=O)(=O)C2CC2)C1                   10%
2  CCCCS(=O)(=O)N(N1CC(C)=NNC1=O)S(=O)(=O)CCCC                   75%
3  CC1=NNC(=O)N(NS(=O)(=O)c2ccc(OC(F)(F)F)cc2)C1                  100%
4                CCS(=O)(=O)NN1CC(C)=NNC1=O                   20%
5  CC1=NNC(=O)N(N(S(=O)(=O)c2cccnc2)S(=O)(=O)c2cccnc2)C1                   10%
